Data origin: patent US6403580B1

target: human EGF-R (Homo sapiens); construct: packaging line GP+E86); assay: Inhibition of EGF-dependent proliferation of F/L-HERc cells; settings: F/L-HERc cells (murine IL-3-dependent line expressing human EGF-R), stimulated with EGF 20 ng/ml, 48 hours, Cell Titer 96 assay
Sequence (P00533 25-1210): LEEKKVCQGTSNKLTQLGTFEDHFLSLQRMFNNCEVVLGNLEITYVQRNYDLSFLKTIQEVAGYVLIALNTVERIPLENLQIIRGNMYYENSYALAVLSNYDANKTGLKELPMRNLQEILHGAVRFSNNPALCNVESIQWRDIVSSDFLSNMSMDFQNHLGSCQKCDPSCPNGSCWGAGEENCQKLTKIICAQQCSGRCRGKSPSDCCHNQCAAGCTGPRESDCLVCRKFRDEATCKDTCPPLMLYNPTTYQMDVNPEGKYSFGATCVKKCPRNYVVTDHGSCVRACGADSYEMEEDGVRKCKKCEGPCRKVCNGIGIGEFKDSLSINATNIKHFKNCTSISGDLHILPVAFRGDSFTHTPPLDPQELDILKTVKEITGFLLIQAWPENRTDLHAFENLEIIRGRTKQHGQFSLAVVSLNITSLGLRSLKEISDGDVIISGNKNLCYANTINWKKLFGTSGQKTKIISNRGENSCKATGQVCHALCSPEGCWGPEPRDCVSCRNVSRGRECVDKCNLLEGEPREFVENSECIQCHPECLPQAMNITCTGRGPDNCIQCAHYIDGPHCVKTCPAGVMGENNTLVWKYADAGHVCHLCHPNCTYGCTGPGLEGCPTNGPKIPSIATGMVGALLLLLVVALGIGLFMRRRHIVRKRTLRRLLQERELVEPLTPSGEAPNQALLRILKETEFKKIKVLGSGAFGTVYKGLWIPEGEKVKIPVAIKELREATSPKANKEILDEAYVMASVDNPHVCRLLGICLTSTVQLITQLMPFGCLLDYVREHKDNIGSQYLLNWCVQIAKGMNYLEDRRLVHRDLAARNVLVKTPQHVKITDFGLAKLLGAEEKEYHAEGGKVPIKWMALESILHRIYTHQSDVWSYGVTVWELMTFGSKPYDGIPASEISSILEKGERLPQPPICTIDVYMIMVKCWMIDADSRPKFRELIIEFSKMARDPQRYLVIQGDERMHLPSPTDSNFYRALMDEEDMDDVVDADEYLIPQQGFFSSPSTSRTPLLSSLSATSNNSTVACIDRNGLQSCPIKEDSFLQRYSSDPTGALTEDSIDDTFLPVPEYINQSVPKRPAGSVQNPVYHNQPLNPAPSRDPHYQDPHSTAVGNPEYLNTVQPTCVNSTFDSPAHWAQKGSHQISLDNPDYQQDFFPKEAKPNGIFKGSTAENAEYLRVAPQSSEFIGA
pIC50: −log10 of the molar value.

>  <structure_as_smiles>
C=CC(=O)Nc1cc2c(N[C@H](C)c3ccccc3)ncnc2cc1OCCN1CC(=O)OC(C)(C)C1

>  <measurement_target>
human EGF-R (Homo sapiens)

>  <pIC50>
9.40

$$$$
